These measurements were taken from patent US20240247080A1.

The reader will find reported EC50 hGLP1R 100% hP (CreLuc) values listed item by item below.
Molecular target: GLP-1 receptor (human (printed as hGLP1R), UniProt P43220 24-463)
Assay: cell-based or functional assay
Starred links: 1 amine or outer side, 2 acyl side, 3 side chain; linkers in the order of their positions; H or OH if unused. Non-standard residues stand in square brackets, D forms with d. Groups on a side chain read outwards from the residue. No end group written: not given here. *: point of attachment. C20 diacid = O=C(O)CCCCCCCCCCCCCCCCCCC(=O)*; γGlu = O=C(O)[C@H](CCC(=O)[*:2])N[*:1]; εLys = N[C@@H](CCCCN[*:1])C(=O)[*:2]; Aib = CC(C)(N)C(=O)O
Unit nM implied. Number only.

* YXEGTFTSDYSIXLEKQAQXAFVEWLIKGGPSEYVSLRHYYNWLTRQRY (Aib at 2, 13, 20; K28 side chain carries C20DA-gGlu-gGlu-gGlu-gGlu-gGlu-gGlu-eLys; C-terminal amide) [Compound 217] | 17.2
* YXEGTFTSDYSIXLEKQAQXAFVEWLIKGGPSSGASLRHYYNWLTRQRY (Aib at 2, 13, 20; K28 side chain carries C18DA-gGlu-gGlu-gGlu-gGlu-gGlu; C-terminal amide) [Compound 253] | 0.74

May I ask what EC50 hGLP1R 100% hP (CreLuc) has been recorded for Y[Aib]EGTFTSDYSI[Aib]LEKQAQ[Aib]AFVQWLIK([εLys-γGlu-γGlu-γGlu-γGlu-γGlu-γGlu-γGlu-C20 diacid])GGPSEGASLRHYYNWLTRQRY-NH2 (also: TFA salt) [Compound 224] ?
3.24
